Experiment: Volume of distribution at steady state in rat
Format: ADME
Conditions: in vivo, read-out: Vdss
ASSAY METRIC: Vd (L/kg)

> print(dat)
                                     smiles  quantitative.result
1  COc1nnc2ccc(N3CCC(c4ccc(N5CC(CN6CCN(C)C(=O)[C@H]6C)C5)cc4)CC3)nn12                 1.61
2  COc1nnc2ccc(N3CCC(c4ccc(OCCN5CCN(C)C(=O)[C@H]5C)cc4)CC3)nn12                  0.9
3  C[C@@H]1C(=O)N(C)CCN1CCOc1ccc(C2CCN(c3ccc4nnc(N(C)C)n4n3)CC2)cc1                  0.4
4  COc1nnc2ccc(N3CCC(c4ccc(CCN5CCN(C)C(=O)[C@H]5C)cc4)CC3)nn12                  0.7
5  COc1nnc2ccc(N3CCC(c4ccc(OCCN5[C@H](C)CN(C(C)=O)C[C@@H]5C)cc4)CC3)nn12                  1.5
